Listed compounds paired with reported melting point

Could you share which melting point value was measured for CC1(C)CCC(C)(C)c2cc(C(=O)COc3ccc(C(=O)O)cc3)ccc21 ?
168 to 170 °C

For CCOC(=O)c1c(C)ccnc1Sc1nc(C)c(CC(=O)O)s1 , what is its reported melting point?
164 to 166 °C

Recorded melting point for Cc1cc(C(=O)NCO)ncc1C(c1c(F)ccc(F)c1F)S(=O)(=O)c1ccc(Cl)cc1 (configuration not stated) , please?
177 to 178 °C

* * *

assayReadout: melting point

# annotated cases, reported melting point shown
[
  {
    "compound": "CCCCCCCC(=O)N(C)Cc1cccc(-c2ccc(CCC(=O)O)cc2)c1",
    "assayReadout": "melting point",
    "result": "91 °C"
  },
  {
    "compound": "Cn1c(C(C)(C)C)cn(N=Cc2cccnc2)c1=O",
    "assayReadout": "melting point",
    "result": "116 to 121 °C"
  },
  {
    "compound": "CC(=O)SCCS(=O)(=O)N1CCC[C@H]1C(=O)OC(C)(C)C",
    "assayReadout": "melting point",
    "result": "46 to 50 °C"
  },
  {
    "compound": "COc1ccccc1N(CCN1CCC(C(=O)c2ccc(F)cc2)CC1)S(=O)(=O)c1cccnc1",
    "assayReadout": "melting point",
    "result": "126 to 128 °C"
  },
  {
    "compound": "Cc1cc2c(cc1C#N)OCC(C)(C)C=C2c1ccccn1",
    "assayReadout": "melting point",
    "result": "136 °C"
  }
]

I'd like to know its melting point. The compound in question is CCOC(=O)c1cn2c3c(c(F)c(F)cc3c1=O)OCC2CO (centres undefined)
268 to 270 °C

Request the reported melting point associated with NC(=O)CNC(=O)c1ccnc(-c2cccc3cc(Cc4cccc(C(F)(F)F)c4)sc23)c1
176 to 177 °C

Give the measured melting point of COc1ccc(-c2c(C=O)cc(OC)c(OC)c2OC)c(C=O)c1OS(C)(=O)=O .
130 to 131 °C

# lookup: melting point of COC(=O)[C@H]1Cc2c([nH]c3ccccc23)[C@@H](c2ccc3c(c2)OCO3)N1C(=O)C(C)Cl (some centres undefined)
125 to 127 °C
